Biological target: T1, recombinant CD47 (recCD47), SinoBiological 12283-H27H-B, biotinylated (human, UniProt Q08722 19-139, biotinylated (AVI-tag))
T1 construct: Bought protein, 17 kDa; At 17 kDa it can only be a part of it; also called recombinant biotinylated CD47; not shown: C-terminal His- and AVI-tag
T1 sequence (Q08722 19-139 limits assumed): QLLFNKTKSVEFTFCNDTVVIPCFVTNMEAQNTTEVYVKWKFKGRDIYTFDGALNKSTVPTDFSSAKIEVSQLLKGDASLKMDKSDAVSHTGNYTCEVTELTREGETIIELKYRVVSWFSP
Assay: SPR Biacore S200, single-cycle, recCD47 on SA chip 100 RU, antibody as analyte, 25 C, 1:1 model;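 further: antibodies were injected over the captured CD47 at a series of concentrations, and KD was derived as the dissociation rate constant divided by the association rate constant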
property: koff (s⁻¹)
Reply numerically in s⁻¹, unit not repeated.

The examples below pair each entry with its known result.
binder | endpoint-result
CO210 humanized IgG4 anti-CD47 antibody (antibody, V domains shown, also called huCO-mAb) VH: QVQLVQSGSELKKPGASVKVSCKASGYTFTNFGMHWVRQAPGQGLEWMGWINTYTGEPTYTDDFKGRFVFSLDTSVSTAYLQISSLKAEDTAVYYCTRGDYRYGDSWGQGTTVTVSS VL: DIVMTQTPLSLSVTPGQPASISCRSSQSLVHSNGKTYLHWYLQKPGQSPKLLIYRVSNRFSGVPDRFSGSGSGTDFTLKISRVEAEDVGVYYCSQSTHVPFTFGQGTKLEIK | 8.3e-05
CO209 humanized IgG4 anti-CD47 antibody (antibody, V domains shown, also called huCO-mAb) VH: QVQLVQSGSELKKPGASVKVSCKASGYTFTNFGMHWVRQAPGQGLEWMGWINTYTGEPTYTDDFKGRFVFSLDTSVSTAYLQISSLKAEDTAVYYCARGDYRYGDSWGQGTTVTVSS VL: DIVMTQTPLSLSVTPGQPASISCRSSQSLVHSNGKTYLHWYLQKPGQSPKLLIYRVSNRFSGVPDRFSGSGSGTDFTLKISRVEAEDVGVYYCSQSTHVPFTFGQGTKLEIK | 0.00032
CO208 humanized IgG4 anti-CD47 antibody (antibody, V domains shown, also called huCO-mAb) VH: QVQLVQSGSELKKPGASVKVSCKASGYTFTNFGMHWVRQAPGKGLKWMGWINTYTGEPTYTDDFKGRFVFSLDTSVSTAYLQISSLKAEDTAVYYCTRGDYRYGDSWGQGTTVTVSS VL: DIVMTQTPLSLSVTPGQPASISCRSSQSLVHSNGKTYLHWYLQKPGQSPQLLIYRVSNRFSGVPDRFSGSGSGTDFTLKISRVEAEDVGVYYCSQSTHVPFTFGQGTKLEIK | 8.1e-05
CO205 humanized IgG4 anti-CD47 antibody (antibody, V domains shown, also called huCO-mAb) VH: QVQLVQSGSELKKPGASVKVSCKASGYTFTNFGMHWVRQAPGQGLEWMGWINTYTGEPTYTDDFKGRFVFSLDTSVSTAYLQISSLKAEDTAVYYCARGDYRYGDSWGQGTTVTVSS VL: DIVMTQTPLSLSVTPGQPASISCRSSQSLVHSNGKTYLHWYLQKPGQSPQLLIYRVSNRFSGVPDRFSGSGSGTDFTLKISRVEAEDVGVYYCSQSTHVPFTFGQGTKLEIK | 0.00046
CO204 humanized IgG4 anti-CD47 antibody (antibody, V domains shown, also called huCO-mAb) VH: QVQLVQSGSELKKPGASVKVSCKASGYTFTNFGMHWVRQAPGKGLKWMGWINTYTGEPTYTDDFKGRFVFSLDTSVSTAYLQISSLKAEDTAVYYCTRGDYRYGDSWGQGTTVTVSS VL: DIVMTQTPLSLSVTPGQPASISCRSSQSLVHSNGKTYLHWYLQKPGQPPQLLIYRVSNRFSGVPDRFSGSGSGTDFTLKISRVEAEDVGVYYCSQSTHVPFTFGQGTKLEIK | 8.5e-05

Ask: Any idea what its koff is? The binder is CO212 humanized IgG4 anti-CD47 antibody (antibody, V domains shown, also called huCO-mAb) VH: QVQLVQSGSELKKPGASVKVSCKASGYTFTNFGMHWVRQAPGKGLKWMGWINTYTGEPTYTDDFKGRFVFSLDTSVSTAYLQISSLKAEDTAVYYCTRGDYRYGDSWGQGTTVTVSS VL: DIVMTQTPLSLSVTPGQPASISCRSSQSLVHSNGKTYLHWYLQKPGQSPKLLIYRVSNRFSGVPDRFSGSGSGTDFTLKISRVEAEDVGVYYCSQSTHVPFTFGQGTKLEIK
Result: 7.2e-05

Ask: Also, CO213 humanized IgG4 anti-CD47 antibody (antibody, V domains shown, also called huCO-mAb) VH: QVQLVQSGSELKKPGASVKVSCKASGYTFTNFGMHWVRQAPGQGLKWMGWINTYTGEPTYTDDFKGRFVFSLDTSVSTAYLQISSLKAEDTAVYYCARGDYRYGDSWGQGTTVTVSS VL: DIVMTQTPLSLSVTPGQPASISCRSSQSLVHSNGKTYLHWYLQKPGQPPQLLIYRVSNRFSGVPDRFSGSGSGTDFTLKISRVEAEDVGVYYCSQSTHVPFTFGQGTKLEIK please.
Result: 0.00034

Ask: Also, CO207 humanized IgG4 anti-CD47 antibody (antibody, V domains shown, also called huCO-mAb) VH: QVQLVQSGSELKKPGASVKVSCKASGYTFTNFGMHWVRQAPGQGLKWMGWINTYTGEPTYTDDFKGRFVFSLDTSVSTAYLQISSLKAEDTAVYYCTRGDYRYGDSWGQGTTVTVSS VL: DIVMTQTPLSLSVTPGQPASISCRSSQSLVHSNGKTYLHWYLQKPGQSPQLLIYRVSNRFSGVPDRFSGSGSGTDFTLKISRVEAEDVGVYYCSQSTHVPFTFGQGTKLEIK please.
Result: 7.3e-05

Ask: Also, CO206 humanized IgG4 anti-CD47 antibody (antibody, V domains shown, also called huCO-mAb) VH: QVQLVQSGSELKKPGASVKVSCKASGYTFTNFGMHWVRQAPGQGLEWMGWINTYTGEPTYTDDFKGRFVFSLDTSVSTAYLQISSLKAEDTAVYYCTRGDYRYGDSWGQGTTVTVSS VL: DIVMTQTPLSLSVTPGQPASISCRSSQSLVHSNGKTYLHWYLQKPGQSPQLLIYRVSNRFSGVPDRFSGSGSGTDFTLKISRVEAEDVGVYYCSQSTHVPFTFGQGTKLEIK please.
Result: 0.0001

Ask: Also, CO203 humanized IgG4 anti-CD47 antibody (antibody, V domains shown, also called huCO-mAb) VH: QVQLVQSGSELKKPGASVKVSCKASGYTFTNFGMHWVRQAPGQGLKWMGWINTYTGEPTYTDDFKGRFVFSLDTSVSTAYLQISSLKAEDTAVYYCTRGDYRYGDSWGQGTTVTVSS VL: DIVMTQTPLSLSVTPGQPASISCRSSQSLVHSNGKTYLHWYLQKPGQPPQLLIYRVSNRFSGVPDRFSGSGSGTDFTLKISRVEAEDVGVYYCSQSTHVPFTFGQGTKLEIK please.
Result: 7.9e-05
